Source of measurements: the supplement of paper PMC10567573

Assay: protein stability index of a GFP-peptide fusion (GPS, HEK-293T) (PSI 1-6); higher = more stable;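 further: 24-mer peptide tiles fused after GFP, lentivirally expressed, FACS-sorted into six equal bins by GFP/DsRed ratio, decoded by Illumina sequencing, PSI is the read-weighted mean bin number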
Details: treatment: MLN4924 1 uM, 8 h; c terminus: native

| seq-text | protein stability index |
| --- | --- |
| AVATIVKPLSAIPQPTITKQEVI [HNF4A] | 2.37 |
| QDGLPPTWRDFRTLEAFHDTCRQ [MED27] | 4.21 |
| SVPLSLCVSSHLALPAQHHWESW [CLPTM1] | 2.33 |
| SSRQTRPILKEQSSSSFSQGQSS [KRT16] | 5.33 |
| PRTRGSWSQPQPLKAPCLNGDTT [RASAL3] | 3.5 |
| LRPRPASSISLPIGHLGCISLLS [DMRTC1] | 2.43 |
| RRLIKRFSFKSKPKANGNPSPQL [C2CD2L] | 4.38 |
| HIFNTLRSHLIDKGMLTSTTEDE [CDS2] | 3.23 |
| PIPHVFSAGTGSAILPHFHHAFR [PLAGL1] | 3.17 |
| NVVPIHVPPTTENKPKVQCCQNI [RAB11A] | 4.12 |
| NWVIPAISAVAVALMYRLYMAED [CYB5A] | 4.02 |
| SFVKKNVLVTGGFFGGFLLGMAS [FUNDC2] | 2.96 |
| IMALVAAILLLVIIILIVMKYRT [VAMP4] | 3.16 |

----------
Each record here notes measured protein stability index.
Assay: protein stability index of a GFP-peptide fusion (GPS, HEK-293T) (PSI 1-6); higher = more stable
Conditions: treatment: DMSO; c terminus: a fixed tail appended
quantity-kind: protein stability index

| seq-text | number |
| --- | --- |
| LLEGTPSSASEGDEDLRRQMQDDE [PALM] | 5.45 |
| DGITNGASWYSLSKGMQDFNYLHT [CPN1] | 2.35 |
| DALDKIRYESLTDPSKLDSGKELK [HSP90AB1] | 5.06 |
| CPTLIYRETYPRTPYVRWNYVAKN [SOAT2] | 2.06 |
| EEEERDQALQAKASLTIPLVPETE [YJU2B] | 5.42 |
| PPRPPPRGTPPRRHSFRKHLYLLR [N4BP2L1] | 3.32 |
| LQLRYSLRILIGDPPHHDHHDEFC [BEX5] | 2.74 |
| LLVLCEDHRGRMVKHQCCPGCGYF [EHMT1] | 2.36 |
| EPHPRPLLQRELMVPGTRHSAVLR [TNXB] | 3.93 |
| RPPGPAGTEQSRGLGHGSTSRGGP [CPOX] | 4.79 |
| LCSVGASKAVFLWNMDKYTMIRKL [WSB1] | 2.34 |
| NARAQQRAAAQQRRSFLNAHHRSG [GNAS] | 4.28 |
| ETVQTWIELLTGETWNPFKLQYQL [GOLPH3L] | 2.65 |

----------
Test: protein stability index of a GFP-peptide fusion (GPS, HEK-293T) (PSI 1-6); higher = more stable
Settings: treatment: DMSO; c terminus: a fixed tail appended
If the reported protein stability index equals or exceeds 4, assign 1. If not, assign -1.

| seq-text | label-class |
| --- | --- |
| AADGETNGSCENSDASSHANAAKH [EHMT1] | 1 |
| DPAYIAVLVLIFNAAKTCPTMPAL [INTS4] | -1 |
| PPPELMDVSLVGGPADCSPPHPAP [DYRK1B] | 1 |
| DSSNSMQTIQKTTTRRIVDGKVVS [KRT18] | -1 |
| LVQLDDYRFASAGDDGIVVVWNAQ [WDR41] | -1 |
| RTRTATMLCAASGNPDPEITWFKD [PTPRD] | -1 |
| FTGSQPTAERITQLSAPHCKKLSL [ALDH8A1] | -1 |

----------
Assay: protein stability index of a GFP-peptide fusion (GPS, HEK-293T) (PSI 1-6); higher = more stable
Settings: treatment: DMSO; c terminus: a fixed tail appended
Each record here notes measured protein stability index.

| seq-text | protein stability index |
| --- | --- |
| EYLENQVIKDKDDSVDAQNICHVW [RNF180] | 3.42 |
| VAVDFTWEEWQFLSPAQKDLYRDV [ZNF649] | 2.54 |
| NDPSGSEEADFLSAETGSPRLTMH [IRX6] | 5.16 |
| LGVGLLTFASLETVGIYFGLVYRI [TMEM40] | 3.17 |
| FFFSSPGNNNGTSIEDGQIPEIIF [BTBD1] | 2.39 |
| YVPSSESFIIYLKNIVIADFVMSL [P2RY14] | 2.89 |
| MASSAASSEHFEKLHEIFRGLHED [VTI1B] | 4.29 |

----------
Assay: protein stability index of a GFP-peptide fusion (GPS, HEK-293T) (PSI 1-6); higher = more stable
Settings: treatment: MLN4924 1 uM, 8 h; c terminus: a fixed tail appended
Each record here notes measured protein stability index.
quantity-kind: protein stability index

| seq-text | quantity-kind | number |
| --- | --- | --- |
| PGITRVYSIGRSVEGRHLYVLEFS [CPN1] | protein stability index | 2.81 |
| ATNSSWVVVFKALVTTHHLMVHGN [SNAP91] | protein stability index | 3.4 |
| KHGSLNRYHNSHPLRERARKLSQG [YJU2B] | protein stability index | 3.84 |
| NFEKLRLSLQDQVDTLTFQSQSLR [MTUS2] | protein stability index | 3.14 |
| IQVEDIRIRAILSTYRKRTPVMEG [LOXL2] | protein stability index | 2.16 |
| ILDQTTSEDAVGGATLGQTTSEEA [HDAC6] | protein stability index | 5.5 |
| KPDGTVEQIGHILVSWLPRLNAYR [NET1] | protein stability index | 2.1 |
| ITKAFHVRKANRIKECLSKGTFSD [RHOBTB1] | protein stability index | 2.81 |
| MMLFNDGTFQVNFYHDHTKIIICS [PLK2] | protein stability index | 2.88 |
| AAMEGATLDQTTSEEAPGGTELIQ [HDAC6] | protein stability index | 5.47 |
| GPSAEAYLLHPAAFHGAPSHLPTR [TBX6] | protein stability index | 3.42 |
| WERKEGGGGISCVLQDGCVFEKAG [CPOX] | protein stability index | 3.84 |
| PVTSIGIDNLGLKLEENLQETHSA [SLC35F2] | protein stability index | 5 |

----------
Assay: protein stability index of a GFP-peptide fusion (GPS, HEK-293T) (PSI 1-6); higher = more stable
Conditions: treatment: MLN4924 1 uM, 8 h; c terminus: a fixed tail appended
Each record here notes measured protein stability index.

| seq-text | protein stability index |
| --- | --- |
| NKLPEGVPQPARMPYISDKHPRQT [KLHL20] | 4.77 |
| QQGLGASYRTESAQRQACMYASSA [TBX5] | 3.82 |
| SGPEAARAGGWVSGEEFYMLTRRV [PKD2L1] | 2.96 |
| LSTPKPLVDFCNKPILLHQVEALA [GMPPB] | 2.52 |
| LQDVRVNQSRCEMKTFVSPEAISP [TRIM15] | 4.09 |
| ERYRHEIAHDGQRIYVLGGGTSWT [KLHDC10] | 2.79 |
| GAGDVVLLQRELAQEDSLNKLALQ [LYSMD4] | 4.01 |
| ITLDGGVLVHVQKWDGKSTTIKRK [FABP4] | 3.06 |
| DGKPFPELVLEQQLDREAQARHQL [PCDHGC5] | 5.04 |
| PQERTLTLVDTGIGMTKADLINNL [HSP90AB1] | 3.67 |
| PTMPALFSDHTFRHYAYLRDSLSH [INTS4] | 2.31 |
| EMLGRKCLTLATAVVQLYLALPPG [WAS] | 3.3 |
| AADGETNGSCENSDASSHANAAKH [EHMT1] | 5.35 |

----------
Each record here notes measured protein stability index.
Assay: protein stability index of a GFP-peptide fusion (GPS, HEK-293T) (PSI 1-6); higher = more stable
Conditions: treatment: DMSO; c terminus: a fixed tail appended

| seq-text | protein stability index |
| --- | --- |
| LLGFNLTFVFLASLLVLIEPVAAG [CLCN6] | 3.45 |
| AVCMFLASKLKETSPLTAEKLCIY [CCND2] | 2.84 |
| PQALPEPMQESKAEGNNQAPGEEE [CHGA] | 5.54 |
| SQNIAAETRAEDPPWFEGLESRFQ [DFFB] | 4.46 |
| YPHFSHRPSTLQAASTPQAEEDWT [OAS1] | 4.52 |
| MHANVEDRGIKGDITPLMAAANGG [ANKRD17] | 4.58 |
| VAREDVRESCPPLGLETLKITDFQ [CPXM2] | 3.96 |
